- measurement_conditions: in DMF, 303.15 K
property: solubility (mole fraction)
I'd appreciate a reply containing only the number, no unit.

Exercise: Fill blank: measured solubility (mole fraction) of the compound Nc1c([N+](=O)[O-])c2no[n+]([O-])c2c2no[n+]([O-])c12 is ____.
Solution: 0.0107

====

- measurement_conditions: in NMP, 293.15 K
property: solubility (mole fraction)

Exercise: Give its solubility (mole fraction) value. Item: Nc1c([N+](=O)[O-])c2no[n+]([O-])c2c2no[n+]([O-])c12
Solution: 0.00948

====

- measurement_conditions: in acetone, 293.15 K
property: solubility (mole fraction)
Field format: numeric only.

Exercise: # solubility (mole fraction) lookup, item Nc1c([N+](=O)[O-])c2no[n+]([O-])c2c2no[n+]([O-])c12
Solution: 0.00087

====

- measurement_conditions: in NMP, 328.15 K
property: solubility (mole fraction)
The response must contain the number and no unit.

Exercise: # input molecule: Nc1c([N+](=O)[O-])c2no[n+]([O-])c2c2no[n+]([O-])c12 ; wanted: its solubility (mole fraction)
Solution: 0.0272

====

- measurement_conditions: in o-xylene, 303.15 K
property: solubility (mole fraction)
Give the value as a plain number.

Exercise: Given the compound Nc1c([N+](=O)[O-])c2no[n+]([O-])c2c2no[n+]([O-])c12 , what is its reported solubility (mole fraction)?
Solution: 5.34e-05

====

- measurement_conditions: in acetonitrile, 318.15 K
property: solubility (mole fraction)
Write the number on its own, no unit after it.

Exercise: Sample Nc1c([N+](=O)[O-])c2no[n+]([O-])c2c2no[n+]([O-])c12 — what was its solubility (mole fraction)?
Solution: 0.000744

====

- measurement_conditions: in cyclohexanone, 323.15 K
property: solubility (mole fraction)
Give a plain numeric answer without units written out.

Exercise: Using the record for Nc1c([N+](=O)[O-])c2no[n+]([O-])c2c2no[n+]([O-])c12 , report its solubility (mole fraction).
Solution: 0.00366

====

- measurement_conditions: in DMF, 313.15 K
property: solubility (mole fraction)
Reply: number alone, nothing else.

Exercise: # input molecule: Nc1c([N+](=O)[O-])c2no[n+]([O-])c2c2no[n+]([O-])c12 ; wanted: its solubility (mole fraction)
Solution: 0.0149

====

- measurement_conditions: in acetonitrile, 323.15 K
property: solubility (mole fraction)
Please give only the number in your answer, with no unit.

Exercise: Record request: solubility (mole fraction) value, item Nc1c([N+](=O)[O-])c2no[n+]([O-])c2c2no[n+]([O-])c12
Solution: 0.000845

====

- measurement_conditions: in acetic acid, 308.15 K
property: solubility (mole fraction)

Exercise: // lookup solubility (mole fraction) for Nc1c([N+](=O)[O-])c2no[n+]([O-])c2c2no[n+]([O-])c12
Solution: 0.000131

====

- measurement_conditions: in ethyl acetate, 323.15 K
property: solubility (mole fraction)
Lab note: jot down the number only; don't add units.

Exercise: Requested read-out: solubility (mole fraction). Entry: Nc1c([N+](=O)[O-])c2no[n+]([O-])c2c2no[n+]([O-])c12
Solution: 0.000536

====

- measurement_conditions: in DMSO, 333.15 K
property: solubility (mole fraction)
No unit in the answer, please; the number alone is enough.

Exercise: Could you share which solubility (mole fraction) value was measured for Nc1c([N+](=O)[O-])c2no[n+]([O-])c2c2no[n+]([O-])c12 ?
Solution: 0.0373

====

- measurement_conditions: in ethanol, 298.15 K
property: solubility (mole fraction)
Respond numerically, and do not add a unit to the figure.

Exercise: Which solubility (mole fraction) is reported for this compound? Nc1c([N+](=O)[O-])c2no[n+]([O-])c2c2no[n+]([O-])c12
Solution: 1.18e-05

====

- measurement_conditions: in toluene, 313.15 K
property: solubility (mole fraction)
// no unit, no text: just the number

Exercise: Fill in: solubility (mole fraction) of Nc1c([N+](=O)[O-])c2no[n+]([O-])c2c2no[n+]([O-])c12 is ___
Solution: 4.29e-05

====

- measurement_conditions: in NMP, 308.15 K
property: solubility (mole fraction)
Answer field: number only, no words.

Exercise: Using the record for Nc1c([N+](=O)[O-])c2no[n+]([O-])c2c2no[n+]([O-])c12 , report its solubility (mole fraction).
Solution: 0.0153

====

- measurement_conditions: in ethanol, 333.15 K
property: solubility (mole fraction)
Enter the number alone.

Exercise: Using the record for Nc1c([N+](=O)[O-])c2no[n+]([O-])c2c2no[n+]([O-])c12 , report its solubility (mole fraction).
Solution: 6.02e-05

====

- measurement_conditions: in DMSO, 293.15 K
property: solubility (mole fraction)

Exercise: Form field: reported solubility (mole fraction) of Nc1c([N+](=O)[O-])c2no[n+]([O-])c2c2no[n+]([O-])c12
Solution: 0.0118

====

- measurement_conditions: in methanol, 318.15 K
property: solubility (mole fraction)

Exercise: Quick one: solubility (mole fraction) for Nc1c([N+](=O)[O-])c2no[n+]([O-])c2c2no[n+]([O-])c12 ?
Solution: 6.33e-05

====

- measurement_conditions: in acetone, 308.15 K
property: solubility (mole fraction)

Exercise: Which solubility (mole fraction) reading was recorded for the compound Nc1c([N+](=O)[O-])c2no[n+]([O-])c2c2no[n+]([O-])c12 ?
Solution: 0.00123

====

- measurement_conditions: in propionic acid, 328.15 K
property: solubility (mole fraction)
Could you keep your reply to the number by itself?

Exercise: Can you look up the measured solubility (mole fraction) of Nc1c([N+](=O)[O-])c2no[n+]([O-])c2c2no[n+]([O-])c12 for me?
Solution: 0.000114

====

- measurement_conditions: in NMP, 298.15 K
property: solubility (mole fraction)

Exercise: Entry Nc1c([N+](=O)[O-])c2no[n+]([O-])c2c2no[n+]([O-])c12 has what solubility (mole fraction)?
Solution: 0.0112

====

- measurement_conditions: in acetic acid, 323.15 K
property: solubility (mole fraction)
Give the value as a plain number.

Exercise: Name the reported solubility (mole fraction) value associated with the molecule Nc1c([N+](=O)[O-])c2no[n+]([O-])c2c2no[n+]([O-])c12
Solution: 0.000206

====

- measurement_conditions: in acetic acid, 298.15 K
property: solubility (mole fraction)
Please state the value as a number alone, without comment.

Exercise: Please look up its solubility (mole fraction): Nc1c([N+](=O)[O-])c2no[n+]([O-])c2c2no[n+]([O-])c12
Solution: 9.36e-05

====

- measurement_conditions: in methanol, 328.15 K
property: solubility (mole fraction)
The response must contain the number and no unit.

Exercise: Field request: solubility (mole fraction) | item: Nc1c([N+](=O)[O-])c2no[n+]([O-])c2c2no[n+]([O-])c12
Solution: 9.73e-05

====

- measurement_conditions: in DMSO, 303.15 K
property: solubility (mole fraction)

Exercise: I'd like to know its solubility (mole fraction). The compound in question is Nc1c([N+](=O)[O-])c2no[n+]([O-])c2c2no[n+]([O-])c12
Solution: 0.0161

====

- measurement_conditions: in methanol, 308.15 K
property: solubility (mole fraction)
Number, no unit, nothing else.

Exercise: GET /values?readout=solubility (mole fraction)&item= Nc1c([N+](=O)[O-])c2no[n+]([O-])c2c2no[n+]([O-])c12
Solution: 4.01e-05

====

- measurement_conditions: in dichloromethane, 303.15 K
property: solubility (mole fraction)
API note: the answer field is a bare number with no unit suffix.

Exercise: Reported solubility (mole fraction), compound Nc1c([N+](=O)[O-])c2no[n+]([O-])c2c2no[n+]([O-])c12 : ____
Solution: 2.68e-05

====

- measurement_conditions: in DMF, 293.15 K
property: solubility (mole fraction)
Just the number, please.

Exercise: Return reported solubility (mole fraction); argument: Nc1c([N+](=O)[O-])c2no[n+]([O-])c2c2no[n+]([O-])c12
Solution: 0.00747

====

- measurement_conditions: in acetonitrile, 313.15 K
property: solubility (mole fraction)

Exercise: Please give the measured solubility (mole fraction) for this compound: Nc1c([N+](=O)[O-])c2no[n+]([O-])c2c2no[n+]([O-])c12
Solution: 0.000654

====

- measurement_conditions: in ethyl acetate, 298.15 K
property: solubility (mole fraction)
Give only the figure.

Exercise: Name the recorded solubility (mole fraction) for Nc1c([N+](=O)[O-])c2no[n+]([O-])c2c2no[n+]([O-])c12 .
Solution: 0.00028

====

- measurement_conditions: in ethanol, 318.15 K
property: solubility (mole fraction)
Please state the value as a number alone, without comment.

Exercise: Give its solubility (mole fraction) value. Item: Nc1c([N+](=O)[O-])c2no[n+]([O-])c2c2no[n+]([O-])c12
Solution: 3.14e-05
